# assayed_system: T1, Cynomolgus CXCR2 (cynomolgus, UniProt Q28519 3-353 (rhesus entry))
# T1 construct: On transfected HEK293T or RBL-2H3 cells; native on cynomolgus neutrophils in the WBSC assay; also called cCXCR2; cynoCXCR2
# T1 chain: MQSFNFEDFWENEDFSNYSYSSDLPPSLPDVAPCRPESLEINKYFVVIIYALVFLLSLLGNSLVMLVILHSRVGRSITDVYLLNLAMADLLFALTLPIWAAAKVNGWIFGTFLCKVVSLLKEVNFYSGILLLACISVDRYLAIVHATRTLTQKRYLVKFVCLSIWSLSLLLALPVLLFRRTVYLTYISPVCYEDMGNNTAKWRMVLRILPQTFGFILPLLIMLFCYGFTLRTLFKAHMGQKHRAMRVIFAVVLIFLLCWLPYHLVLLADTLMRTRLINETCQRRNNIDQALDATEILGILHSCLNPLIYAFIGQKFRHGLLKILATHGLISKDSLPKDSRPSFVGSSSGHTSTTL
# test_description: FACS competition vs 3 nM FMAT-Blue Gro-α
observation_type: % inhibition of max (%)
Just the number in %, nothing appended.

- binder: "CXCR20032 (bispecific antibody, Biparatopic: two VHH joined by a GlySer linker; also called 2B2-35GS-163D2; not shown: C-terminal c-myc tag and His6 tag coded by pAX100) EVQLVESGGELVQPGGSLRLSCAASGSILTINAMGWYRQAPGKQRELVVRRTRGGSTTYQDSVKGRFTISADIAKKTMYLQMNSLKPEDTAVYYCMLDDRGGVYWGQGTQVTVSSGGGGSGGGGSGGGGSGGGGSGGGGSGGGGSGGGGSEVQLVESGGGLVQAGGSLRLSCAASGRTFSDYAMGWFRQAPGKEREFVAAITWNGGRVFYTASVKGRFTISRDNAKNTMYLQMNSLKPEDTAVYYCAADKDRRTDYLGHPVAYWGQGTQVTVSS"
  % inhibition of max (%): 99
- binder: "CXCR20031 (bispecific antibody, Biparatopic: two VHH joined by a GlySer linker; also called 2B2-35GS-163E3; not shown: C-terminal c-myc tag and His6 tag coded by pAX100) EVQLVESGGELVQPGGSLRLSCAASGSILTINAMGWYRQAPGKQRELVVRRTRGGSTTYQDSVKGRFTISADIAKKTMYLQMNSLKPEDTAVYYCMLDDRGGVYWGQGTQVTVSSGGGGSGGGGSGGGGSGGGGSGGGGSGGGGSGGGGSEVQLVESGGGLVQPGGSLRLSCVASGRIFSSNAMGWFRQAPGKEREFVAAITWRSGGSAYYADSAKGRFTISRDNAKNTVYLQMNSLKPEDTAVYYCAAGGSSWLSFPPDYWGQGTQVTVSS"
  % inhibition of max (%): 99

Incoming: Look up % inhibition of max: CXCR20015 (other, Two different VHH joined by a GlySer linker; also called 2B2-35GS-137B7; not shown: C-terminal c-myc tag and His6 tag coded by pAX100) EVQLVESGGELVQPGGSLRLSCAASGSILTINAMGWYRQAPGKQRELVVRRTRGGSTTYQDSVKGRFTISADIAKKTMYLQMNSLKPEDTAVYYCMLDDRGGVYWGQGTQVTVSSGGGGSGGGGSGGGGSGGGGSGGGGSGGGGSGGGGSEVQLVESGGGLVQPGGSVRLSCVASGIIFRLSALGWTRQGPGKAREWVAGINSDGTTNYADPVKGRFTISRDNAKNTIYLHMDMLKPEDTAVYYCASGKYRGQGTQVTVSS
Outgoing: 81.5
